# assayed system: HER2 S310F (Homo sapiens, UniProt P04626, S310F)
# Construct: expressed in transfected cells; host or cells: BaF3 (murine pro-B)
# Sequence (P04626 23-1255 S310F): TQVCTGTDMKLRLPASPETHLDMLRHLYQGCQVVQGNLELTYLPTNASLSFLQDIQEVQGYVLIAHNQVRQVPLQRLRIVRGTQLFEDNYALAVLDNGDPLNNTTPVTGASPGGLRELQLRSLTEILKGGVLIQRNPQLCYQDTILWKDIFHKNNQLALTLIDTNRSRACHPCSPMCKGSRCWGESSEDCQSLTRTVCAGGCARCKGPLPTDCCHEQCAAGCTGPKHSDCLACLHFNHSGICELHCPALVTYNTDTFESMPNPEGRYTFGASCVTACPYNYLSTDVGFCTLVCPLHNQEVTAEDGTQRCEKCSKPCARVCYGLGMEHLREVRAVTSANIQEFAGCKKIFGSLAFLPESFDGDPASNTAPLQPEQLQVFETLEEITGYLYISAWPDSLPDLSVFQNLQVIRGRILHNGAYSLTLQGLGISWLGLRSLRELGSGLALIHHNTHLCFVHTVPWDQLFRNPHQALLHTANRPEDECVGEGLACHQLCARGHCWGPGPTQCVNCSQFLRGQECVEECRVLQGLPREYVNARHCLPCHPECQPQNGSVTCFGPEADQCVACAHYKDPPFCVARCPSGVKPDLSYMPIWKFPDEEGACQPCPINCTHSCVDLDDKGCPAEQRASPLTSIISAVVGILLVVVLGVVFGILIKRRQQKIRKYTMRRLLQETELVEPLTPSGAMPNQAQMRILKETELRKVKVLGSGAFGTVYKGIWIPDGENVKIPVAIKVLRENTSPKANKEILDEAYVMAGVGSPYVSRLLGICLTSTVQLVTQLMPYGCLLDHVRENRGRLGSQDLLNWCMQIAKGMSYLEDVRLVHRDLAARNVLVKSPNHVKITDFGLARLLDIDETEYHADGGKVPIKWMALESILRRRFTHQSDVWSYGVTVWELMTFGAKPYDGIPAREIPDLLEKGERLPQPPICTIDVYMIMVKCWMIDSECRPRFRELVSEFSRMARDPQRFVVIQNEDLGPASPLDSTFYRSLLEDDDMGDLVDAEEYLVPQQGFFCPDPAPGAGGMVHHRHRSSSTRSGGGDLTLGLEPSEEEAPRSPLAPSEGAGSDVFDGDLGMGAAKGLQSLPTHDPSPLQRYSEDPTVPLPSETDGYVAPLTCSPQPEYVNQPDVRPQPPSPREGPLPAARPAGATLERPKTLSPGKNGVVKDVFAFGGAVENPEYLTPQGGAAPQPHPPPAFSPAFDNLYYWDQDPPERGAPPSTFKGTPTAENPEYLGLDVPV
# protocol description: Activity for inhibiting HER2 (Table B), HER2 S310F
# Assay type: cell-based
# condition: read-out: HER2 S310F, potency code (IC50)
pIC50: −log10 of the molar value.
Some molecules, each annotated with its measured pIC50.

Example results:
- molecule: "C=CC(=O)Nc1cc2c(Nc3ccc(OCc4ccccn4)c(Cl)c3)ncnc2cc1OCCn1ccnc1"
  observed value: "7.52 to 7.70"
- molecule: "CC#CC(=O)Nc1cc2c(Nc3ccc(OCc4ccccn4)c(Cl)c3)ncnc2cc1N(C)CCN1CCOCC1"
  observed value: "7.00 to 7.30"
- molecule: "C=CC(=O)Nc1cc2c(Nc3ccc(OCc4cnccn4)c(Cl)c3)ncnc2cc1OCCN1CC2CCC(C1)O2"
  observed value: "7.52 to 7.70"

Query C=CC(=O)Nc1cc2c(Nc3cc(Cl)c(OCc4cccc(F)c4)cc3F)ncnc2cc1OCCN1CCOCC1 yields pIC50 of 7.70 to 8.00

# pIC50 of C=CC(=O)Nc1cc2c(Nc3ccc(OCc4ccccn4)c(Cl)c3)ncnc2cc1OC1CCN(C)C1 (stereo not shown) = 7.52 to 7.70

molecule C=CC(=O)Nc1cc2c(Nc3ccc(Oc4ccc(C)nc4)c(C)c3)ncnc2cc1OCCN1CCOCC1 , pIC50 observed: 7.30 to 7.52

pIC50 reported for this molecule C=CC(=O)Nc1cc2c(Nc3ccc(OCc4cnccn4)c(Cl)c3)ncnc2cc1OCCCN1CC(OC)C1 : 7.70 to 8.00
